Source listed as patent US4725687A.

Entries and their measured Rate of net polyglutamate formation follow.
Test system: L1210 cells
assay text: Rate of net polyglutamate formation in L1210 cells
Type: cell-based
measurement setup: conditions of comparable rates of drug entry
Numbers only; they are read as pM/min/g dry wt.

// solved cases for Rate of net polyglutamate formation follow
Nc1nc(N)c2cc(CNc3ccc(C(=O)N[C@@H](CCC(=O)O)C(=O)O)cc3)cnc2n1 ... 84.2
CN(Cc1cnc2nc(N)nc(N)c2c1)c1ccc(C(=O)N[C@@H](CCC(=O)O)C(=O)O)cc1 [Compound 5-dMTX, 5-deazamethotrexate, reference compound] ... 48.8
Cc1c(CNc2ccc(C(=O)N[C@@H](CCC(=O)O)C(=O)O)cc2)cnc2nc(N)nc(N)c12 ... 98.3

Would you kindly look at the next entry?
Prompt: Give Rate of net polyglutamate formation for Cc1c(CN(C)c2ccc(C(=O)N[C@@H](CCC(=O)O)C(=O)O)cc2)cnc2nc(N)nc(N)c12 tested on L1210 cells.
Completion: 42.9
